Please provide measured relative fusion index (FI) for the entries that follow.
# Test system: C2C12 cells
# PROTOCOL_DESCRIPTION: Evaluation of myogenesis of C2C12 cells by fusion index
# Format: cell-based, mouse
# RUN_CONDITIONS: Group 2; 3 μM; differentiation condition 72 hours; DMSO as 1; average of three
Give bare numbers.

Example entries begin here.
> print(dat)
                                   molecule  recorded.result
1  COc1ccc(-n2cnc(/N=C/N3CCOCC3)c2C(=O)c2ccccc2)cc1 [exemplary compound 15]             1.58
2  CNc1ncn(-c2ccc(C)cc2)c1C(=O)c1ccccc1 [exemplary compound 12]             1.43

Answer for every listed entry: what is its relative fusion index (FI)? The entries follow.
1. COc1ccc(-n2cnc(N)c2C(=O)c2ccccc2)cc1 [exemplary compound 13]
2. COc1ccc(-n2cnc(/N=C/N(C)C)c2C(=O)c2ccccc2)cc1 [exemplary compound 14]

1.32
1.63

Hi team, please reply with relative fusion index (FI) for each item in this list.
1. Cc1ccc(-n2c(C)nc(N)c2C(=O)c2ccccc2)cc1 [exemplary compound 16]
2. Cc1ccc(-n2cnc(/N=C/N3CCOCC3)c2C(=O)c2ccccc2)cc1 [exemplary compound 1]

[1.18, 1.80]

Which relative fusion index (FI) reading was recorded for the molecule Nc1ncn(-c2ccc(Br)cc2)c1C(=O)c1ccccc1 [exemplary compound 17] ? 2.14

----------
# Test system: C2C12 cells
# PROTOCOL_DESCRIPTION: Evaluation of myogenesis of C2C12 cells by fusion index
# Type: cell-based, mouse
# RUN_CONDITIONS: Group 4; 1 μM; differentiation condition 72 hours; DMSO as 1; average of three
Decide using relative fusion index (FI): a value greater than or equal to 1 is Fulfilled, a smaller one is Not fulfilled.

# count of solved cases: 5
> print(dat)
                                   molecule          group
1  Cc1ccc(-n2cnc(N)c2C(=O)c2cccc(Cl)c2)cc1 [exemplary compound 31]      Fulfilled
2  Nc1ncn(-c2ccc(Cl)cc2Cl)c1C(=O)c1ccccc1 [exemplary compound 35]      Fulfilled
3  Cc1ccc(-n2cnc(N)c2C(=O)c2ccc([N+](=O)[O-])cc2)cc1 [exemplary compound 33]  Not fulfilled
4  Cc1ccc(-n2cnc(N)c2C(=O)C23CC4CC(CC(C4)C2)C3)cc1 [exemplary compound 37]      Fulfilled
5  COc1ccc(C(=O)c2c(N)ncn2-c2ccc(C)cc2)cc1 [exemplary compound 30]      Fulfilled

Quick check, relative fusion index (FI) >= 1? NCCc1ccc(-n2cnc(N)c2C(=O)c2ccccc2)cc1 [exemplary compound 28] Fulfilled

Determine whether measured relative fusion index (FI) meets or exceeds 1 for N#CCc1ccc(-n2cnc(N)c2C(=O)c2ccccc2)cc1 [exemplary compound 29] Fulfilled

Hi, just wondering whether CC(C)(C)OC(=O)NCCc1ccc(-n2cnc(N)c2C(=O)c2ccccc2)cc1 [exemplary compound 27] shows relative fusion index (FI) of 1 or higher. Not fulfilled

----------
# System: C2C12 cells
# PROTOCOL_DESCRIPTION: Evaluation of myogenesis of C2C12 cells by fusion index
# Type: cell-based, mouse
# RUN_CONDITIONS: Group 3; 1 μM; differentiation condition 72 hours; DMSO as 1; average of three
Give relative fusion index (FI) for every item shown.

> print(dat)
                                   compound  target.or.system  recorded.result
1  O=C(c1ccccc1)c1c(/N=C/N2CCOCC2)ncn1-c1ccc(Br)cc1 [exemplary compound 20]       C2C12 cells             1.26
2  Cc1ccc(-n2cnc(N(C)C)c2C(=O)c2ccccc2)cc1 [exemplary compound 18]       C2C12 cells             1.34
3  CN(C)/C=N/c1ncn(-c2ccc(Br)cc2)c1C(=O)c1ccccc1 [exemplary compound 19]       C2C12 cells             1.25
4  Cc1ccc(-n2cnc(N)c2C#N)cc1 [exemplary compound 26]       C2C12 cells             1.01
5  Cc1ccc(-n2cnc(/N=C/N3CCOCC3)c2C(=O)c2ccccc2)cc1 [exemplary compound 1]       C2C12 cells             1.28

Here is the next item to consider.
Recorded relative fusion index (FI) for CC(=O)c1c(/N=C/N(C)C)ncn1-c1ccc(C)cc1 [exemplary compound 25] , please? 0.96
